experiment description: CCTE_Shafer_MEA_dev_per_burst_spike_percent: CCTE's Neural Network Formation Assay for Percent of Spikes in a Burst, Shafer Lab (AID 2284032)
Active and inactive are the calls of the source. The calls were made as follows: active = hit-call score of the fitted dose curve at least 0.9, where 1 is the maximum; inactive = score below 0.9.
Log the outcome using a class from 1.0 (active), 0.0 (inactive)

Returns: the outcome recorded for CCCN(CC)CC1COC2(CCC(C(C)(C)C)CC2)O1 (stereo not drawn) in this assay.
1.0

For this compound, state the assay outcome: `COP(=S)(OC)SCn1nnc2ccccc2c1=O`
0.0

More entries:
// outcome(item) with item = CC(C)=CC1C(C(=O)OCc2coc(Cc3ccccc3)c2)C1(C)C (stereo not drawn)
0.0

====

Read-out: Monokine induced gamma interferon (MIG), CXCL9 (gene 4283)
experiment description: BSK_BE3C_MIG: BioMAP Diversity Plus: BE3C Assay for Monokine induced gamma interferon (MIG) Biomarker Activity (AID 2283035);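 also: MIG protein measured by ELISA in BE3C cultures after 24 h of dosing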
cond: primary human bronchial epithelial cells; actives raise or lower the signal
Active and inactive are the calls of the source. The calls were made as follows: active = hit-call score of the fitted dose curve at least 0.9, where 1 is the maximum; inactive = score below 0.9.
Select the correct class. Options are active, inactive and nothing else.

Take a look at these entries with their results.
Kindly provide the recorded test outcome for the following compound: `O=C(Nc1ccccc1-c1ccc(Cl)cc1)c1cccnc1Cl`
inactive

Entry CCCCC(O)(Cn1cncn1)c1ccc(Cl)cc1Cl (stereo not drawn) : call = ?
inactive

Recorded call for `Cc1nc(N(C)C)nc(OC(=O)N(C)C)c1C` ?
inactive

Hi team, can someone confirm the assay call for `CCOP(=S)(OCC)Oc1nc(Cl)n(C(C)C)n1` ?
inactive

Lab log entry: `CO/N=C(/C1=NOCCO1)c1ccccc1Oc1ncnc(Oc2ccccc2Cl)c1F` — outcome as called in the assay?
inactive

Continuing:
What did the test return for `CCSC(=O)N1CCCCCC1` ?
inactive

How did this test come out for CCN(CC)C(=O)C(C)Oc1cccc2ccccc12 (stereo not drawn) ?
inactive

Dear colleague, could you share the recorded outcome for CCOC(=O)C(C)OC(=O)c1cc(Oc2ccc(C(F)(F)F)cc2Cl)ccc1[N+](=O)[O-] (stereo not drawn) when you have a moment?
inactive

====

Read-out: Interferon-gamma inducible Protein 10 (IP10), CXCL10 (gene 3627)
experiment description: BSK_KF3CT_IP10: BioMAP Diversity Plus: KF3CT Assay for Interferon-gamma inducible Protein 10 (IP10) Biomarker Activity (AID 2283068)
cond: primary human keratinocytes with fibroblasts; actives raise or lower the signal
Calls of active or inactive are those of the source. How the source made its calls: active means hit-call score of the fitted dose curve at least 0.9, where 1 is the maximum; inactive means score below 0.9.
Allowed answers: active, inactive

Check out these entries, answers already filled in.
Could you check what this test reported for `Nc1c(Cl)c(F)nc(OCC(=O)O)c1Cl` ?
inactive

Recorded call for CC1(C)C(C(=O)OC(C#N)c2cccc(Oc3ccccc3)c2)C1(C)C (stereo not drawn) ?
inactive

Hi team, can someone confirm the assay call for `O=C(O)c1c(Cl)ccc2cc(Cl)cnc12` ?
inactive

// param item: `Cc1c(COC(=O)[C@@H]2[C@H](/C=C(\Cl)C(F)(F)F)C2(C)C)cccc1-c1ccccc1` ; yields the recorded call
inactive

Continuing:
Identify the outcome logged in this assay for the compound shown: `CC(C)Oc1cccc(NC(=O)c2ccccc2C(F)(F)F)c1`
inactive

Fill in: this test's call for `COC(=O)NC(=S)Nc1ccccc1NC(=S)NC(=O)OC` is ___
inactive

Could you check what this test reported for `Cc1nc(N(C)C)nc(OC(=O)N(C)C)c1C` ?
inactive

Recorded test call requested for CCCN(CC)CC1COC2(CCC(C(C)(C)C)CC2)O1 (stereo not drawn)
active
